The reported measurements were obtained from patent US8865741B2.

target: human Nav1.5 sodium channel (Homo sapiens); construct: host or cells: HEK-293; experiment: Inhibition of sodium channel response in hNav1.5-HEK293 cells (FLIPR, veratridine); type: cell-based; details: human, HEK-293 cells expressing human Nav1.5 (hNav1.5-HEK-293), pH 7.4; 1.5 mM; read-out: HEK Nav 1.5 % inh. @ 1.5 mM
Sequence (Q14524 whole entry): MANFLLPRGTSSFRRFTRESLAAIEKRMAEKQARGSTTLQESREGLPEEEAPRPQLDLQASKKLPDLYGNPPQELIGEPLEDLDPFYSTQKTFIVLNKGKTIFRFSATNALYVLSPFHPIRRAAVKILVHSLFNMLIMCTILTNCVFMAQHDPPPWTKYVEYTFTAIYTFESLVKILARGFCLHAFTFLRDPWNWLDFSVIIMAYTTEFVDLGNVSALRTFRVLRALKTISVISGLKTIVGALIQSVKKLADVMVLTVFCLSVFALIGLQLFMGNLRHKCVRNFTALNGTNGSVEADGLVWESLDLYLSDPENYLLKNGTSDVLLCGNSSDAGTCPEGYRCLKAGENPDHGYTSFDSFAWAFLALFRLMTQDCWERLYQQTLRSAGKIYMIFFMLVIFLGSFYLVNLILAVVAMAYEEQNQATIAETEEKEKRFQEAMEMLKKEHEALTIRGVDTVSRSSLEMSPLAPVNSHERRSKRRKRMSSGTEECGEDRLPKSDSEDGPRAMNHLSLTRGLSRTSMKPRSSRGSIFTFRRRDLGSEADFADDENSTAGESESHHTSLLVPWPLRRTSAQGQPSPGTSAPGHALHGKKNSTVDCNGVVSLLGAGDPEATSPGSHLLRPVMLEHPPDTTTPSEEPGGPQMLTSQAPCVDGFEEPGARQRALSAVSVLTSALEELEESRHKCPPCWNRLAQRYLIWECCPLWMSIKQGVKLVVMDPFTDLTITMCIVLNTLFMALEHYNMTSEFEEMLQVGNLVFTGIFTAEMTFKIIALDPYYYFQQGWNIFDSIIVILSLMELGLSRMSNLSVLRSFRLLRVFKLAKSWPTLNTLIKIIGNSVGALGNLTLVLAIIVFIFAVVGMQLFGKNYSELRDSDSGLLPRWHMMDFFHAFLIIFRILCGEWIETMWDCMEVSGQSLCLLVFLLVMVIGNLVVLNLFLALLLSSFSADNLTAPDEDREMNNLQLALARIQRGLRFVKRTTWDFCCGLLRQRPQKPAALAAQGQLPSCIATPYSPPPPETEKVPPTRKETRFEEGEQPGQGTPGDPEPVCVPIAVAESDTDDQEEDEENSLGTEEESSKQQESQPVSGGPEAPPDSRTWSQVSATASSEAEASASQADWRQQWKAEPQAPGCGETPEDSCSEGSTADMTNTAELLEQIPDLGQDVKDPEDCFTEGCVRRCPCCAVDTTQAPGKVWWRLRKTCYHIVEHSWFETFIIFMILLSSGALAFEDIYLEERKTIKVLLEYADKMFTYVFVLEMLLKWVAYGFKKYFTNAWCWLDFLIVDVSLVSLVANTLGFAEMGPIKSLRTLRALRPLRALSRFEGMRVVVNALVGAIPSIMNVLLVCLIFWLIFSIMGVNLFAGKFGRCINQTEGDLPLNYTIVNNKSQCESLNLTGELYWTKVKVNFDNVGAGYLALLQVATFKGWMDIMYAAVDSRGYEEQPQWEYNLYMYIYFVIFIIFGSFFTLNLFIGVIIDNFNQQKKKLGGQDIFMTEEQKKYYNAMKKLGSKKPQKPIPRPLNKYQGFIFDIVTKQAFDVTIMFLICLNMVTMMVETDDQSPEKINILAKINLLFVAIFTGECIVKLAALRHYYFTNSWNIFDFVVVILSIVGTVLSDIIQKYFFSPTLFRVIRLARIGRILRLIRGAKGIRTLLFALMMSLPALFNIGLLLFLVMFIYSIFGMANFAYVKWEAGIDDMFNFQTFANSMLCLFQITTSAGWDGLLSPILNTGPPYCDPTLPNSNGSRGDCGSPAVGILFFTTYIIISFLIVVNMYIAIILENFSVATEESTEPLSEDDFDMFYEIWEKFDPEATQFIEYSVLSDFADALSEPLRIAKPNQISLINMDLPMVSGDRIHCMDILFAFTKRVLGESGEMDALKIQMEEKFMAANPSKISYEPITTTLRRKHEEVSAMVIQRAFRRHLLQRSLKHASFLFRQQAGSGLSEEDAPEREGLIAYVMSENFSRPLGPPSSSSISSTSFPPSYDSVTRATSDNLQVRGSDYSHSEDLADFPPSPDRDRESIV
PROPERTY_NAME: inhibition at 10 min, 1.5 mM

                                   compound                             tested_system  result
0  C[N+]1(C)CCCC[C@@H]1CCN(c1ccccc1)C1Cc2ccccc2C1.[I-]  human Nav1.5 sodium channel (Homo sapiens)   97.6%
1  C[N+]1(C)CCCCC1CN(c1ccccc1)C1Cc2ccccc2C1.[I-] (centres unmarked)  human Nav1.5 sodium channel (Homo sapiens)   99.1%
2  C[N+]1(C)CCCC[C@H]1CCN(c1ccccc1)C1Cc2ccccc2C1.[I-]  human Nav1.5 sodium channel (Homo sapiens)   97.2%
3  CC[N+]1(CC)CCCC[C@H]1CCN(c1ccccc1)C1Cc2ccccc2C1.[I-]  human Nav1.5 sodium channel (Homo sapiens)   98.1%
4  CC[N+]1(CC)CCCC[C@@H]1CCN(c1ccccc1)C1Cc2ccccc2C1.[I-]  human Nav1.5 sodium channel (Homo sapiens)   97.8%

----------
Catalogue of hTRPV1-N1E Nav 1 mM (% inhibition) 25° C. readings, one per entry.
system: sodium channel in hTRPV1-N1E115 cells; test: FLIPR membrane potential assay of sodium channel response in hTRPV1-N1E115 cells, with (47° C.) or without (25° C.) heat activation of hTRPV1; format: cell-based; details: 1 mM; 25° C. (no heat activation of hTRPV1)
PROPERTY_NAME: hTRPV1-N1E Nav 1 mM (% inhibition) 25° C.

                                   compound          result
0  CC[N+]1(CC)CCCCC1CCN(c1ccc(F)cc1)C1Cc2ccccc2C1.[I-] (centres unmarked)     0 (N = 3) %
1  C[N+]1(C)CCCC[C@@H]1CCN(c1ccccc1)C1Cc2ccccc2C1.[I-]   6.5 (N = 2) %
2  [Br-].c1ccc(N(CCC2CCCC[N+]23CCCC3)C2Cc3ccccc3C2)cc1 (centres unmarked)     0 (N = 3) %
3  C[N+]1(C)CCCCC1CCN(c1ncccn1)C1Cc2ccccc2C1.[I-] (centres unmarked)  46.6 (N = 2) %

----------
System: sodium channel in hTRPV1-N1E115 cells
Assay: FLIPR membrane potential assay of sodium channel response in hTRPV1-N1E115 cells, with (47° C.) or without (25° C.) heat activation of hTRPV1
Type: cell-based
Settings: 1 mM; 25° C. (no heat activation of hTRPV1)
Excerpt: In one embodiment, a modified FLIPR® (Fluorometric Imaging Plate Reader) based assay system was developed which is capable of discriminating between non-specific versus hTRPV1-mediated entry of test compounds. […] The assay allows a permanently charged compound to selectively enter through opened hTRPV1 channels and that compound's potency in inhibiting sodium channels from the cytoplasm side of the same cell can be assessed and quantified. […]
PROPERTY_NAME: hTRPV1-N1E Nav 1 mM (% inhibition) 25° C.

                                    compound                          tested_system          result
 0  CC[N+]1(CC)CCCCC1CCN(c1cccc(F)c1)C1Cc2ccccc2C1.[I-] (stereo not drawn) [Example 17]  sodium channel in hTRPV1-N1E115 cells   6.1 (N = 3) %
 1  Cc1ccccc1N(CCC1CCCC[N+]1(C)C)C1Cc2ccccc2C1.[I-] (stereo not drawn) [Example 24]  sodium channel in hTRPV1-N1E115 cells  57.9 (N = 2) %
 2  Cc1ccc(N(CC2CCCC[N+]2(C)C)C2Cc3ccccc3C2)cc1.[I-] (stereo not drawn) [Example 27]  sodium channel in hTRPV1-N1E115 cells  61.4 (N = 2) %
 3  CC[N+]1(CC)CCCCC1CCN(c1ccc(C)cc1)C1Cc2ccccc2C1.[I-] (stereo not drawn) [Example 23]  sodium channel in hTRPV1-N1E115 cells       Insoluble
 4  Cc1cccc(N(CCC2CCCC[N+]2(C)C)C2Cc3ccccc3C2)c1.[I-] (stereo not drawn) [Example 19]  sodium channel in hTRPV1-N1E115 cells       Insoluble
 5  Cc1cccc(N(CC2CCCC[N+]2(C)C)C2Cc3ccccc3C2)c1.[I-] (stereo not drawn) [Example 29]  sodium channel in hTRPV1-N1E115 cells  64.6 (N = 2) %
 6  CC[N+]1(CC)CCCC[C@H]1CCN(c1ccccc1)C1Cc2ccccc2C1.[I-] [Example 2]  sodium channel in hTRPV1-N1E115 cells    50 (N = 2) %
 7  C[N+]1(C)CCCCC1CCCN(c1ccccc1)C1Cc2ccccc2C1.[I-] (stereo not drawn) [Example 7]  sodium channel in hTRPV1-N1E115 cells       Insoluble
 8  CC[N+]1(CC)CCCCC1CN(c1ccc(C)cc1)C1Cc2ccccc2C1.[I-] (stereo not drawn) [Example 30]  sodium channel in hTRPV1-N1E115 cells       Insoluble
 9  C[N+]1(C)CCCCC1CCN(c1nccs1)C1Cc2ccccc2C1.[I-] (stereo not drawn) [Example 39]  sodium channel in hTRPV1-N1E115 cells  31.3 (N = 2) %
10  C[N+]1(C)CCCCC1CCN(c1cccc(F)c1)C1Cc2ccccc2C1.[I-] (stereo not drawn) [Example 14]  sodium channel in hTRPV1-N1E115 cells   3.8 (N = 3) %
11  C[N+]1(C)CCCCC1CN(c1cccc(F)c1)C1Cc2ccccc2C1.[I-] (stereo not drawn) [Example 31]  sodium channel in hTRPV1-N1E115 cells       Insoluble
12  C[N+]1(C)CCCCC1CN(c1ccccc1)C1Cc2ccccc2C1.[I-] (stereo not drawn) [Example 3]  sodium channel in hTRPV1-N1E115 cells    23 (N = 2) %
13  C[N+]1(C)CCCC1CN(c1ccccc1)C1Cc2ccccc2C1.[I-] (stereo not drawn) [Example 8]  sodium channel in hTRPV1-N1E115 cells  39.9 (N = 2) %
14  C[N+]1(C)CCCCC1CN(c1ccc(F)cc1)C1Cc2ccccc2C1.[I-] (stereo not drawn) [Example 28]  sodium channel in hTRPV1-N1E115 cells  61.8 (N = 2) %
15  C[N+]1(C)CCCCC1CCN(c1ccccn1)C1Cc2ccccc2C1.[I-] (stereo not drawn) [Example 37]  sodium channel in hTRPV1-N1E115 cells  59.5 (N = 2) %
16  C[N+]1(C)CCCCC1CCN(c1ccccc1F)C1Cc2ccccc2C1.[I-] (stereo not drawn) [Example 4]  sodium channel in hTRPV1-N1E115 cells     0 (N = 3) %
17  CC[N+]1(CC)CCCC[C@@H]1CCN(c1ccccc1)C1Cc2ccccc2C1.[I-] [Example 11]  sodium channel in hTRPV1-N1E115 cells    71 (N = 2) %
18  CC[N+]1(CC)CCCCC1CCN(c1ccccc1C)C1Cc2ccccc2C1.[I-] (stereo not drawn) [Example 25]  sodium channel in hTRPV1-N1E115 cells       Insoluble
19  CC[N+]1(CC)CCCCC1CN(c1ccccc1)C1Cc2ccccc2C1.[I-] (stereo not drawn) [Example 13]  sodium channel in hTRPV1-N1E115 cells    64 (N = 2) %
20  C[N+]1(C)CCCCC1CCN(c1ccc(F)cc1)C1Cc2ccccc2C1.[I-] (stereo not drawn) [Example 15]  sodium channel in hTRPV1-N1E115 cells   0.7 (N = 3) %
21  CC[N+]1(CC)CCCCC1CCN(c1cccc(C)c1)C1Cc2ccccc2C1.[I-] (stereo not drawn) [Example 21]  sodium channel in hTRPV1-N1E115 cells  58.2 (N = 3) %
22  Cc1ccc(N(CCC2CCCC[N+]2(C)C)C2Cc3ccccc3C2)cc1.[I-] (stereo not drawn) [Example 22]  sodium channel in hTRPV1-N1E115 cells    48 (N = 2) %
23  CC[N+]1(CC)CCCCC1CCCN(c1ccccc1)C1Cc2ccccc2C1.[I-] (stereo not drawn) [Example 26]  sodium channel in hTRPV1-N1E115 cells       Insoluble
